Field: ILS at 70 mg/kg. Provide a value for each of the compounds that follow.
- Tested on: Mus musculus
- assay.notes: In vivo percent increase in life span relative to untreated controls in B6D2F1/J male mice at dose 70 mg/kg
- Assay type: functional

Answered cases to consult:
COc1cccc2c1C(=O)c1c(O)c3c(c(O)c1C2=O)C[C@@](O)(C(=O)COC(=O)CCCCCCCC(=O)O)C[C@@H]3OC1CC(NC(=O)C(F)(F)F)C(O)C(C)O1 (some centres undefined)    > 445%
COc1cccc2c1C(=O)c1c(O)c3c(c(O)c1C2=O)C[C@@](O)(C(=O)COC(=O)CCCCCC(=O)O)C[C@@H]3OC1CC(NC(=O)C(F)(F)F)C(O)C(C)O1 (some centres undefined)    > 445%
COc1cccc2c1C(=O)c1c(O)c3c(c(O)c1C2=O)C[C@@](O)(C(=O)COC(=O)CC(=O)O)C[C@@H]3OC1CC(NC(=O)C(F)(F)F)C(O)C(C)O1 (some centres undefined)    154%

Below: the item to evaluate.
Q: # ILS at 70 mg/kg lookup, item COc1cccc2c1C(=O)c1c(O)c3c(c(O)c1C2=O)C[C@@](O)(C(=O)COC(=O)CCCCC(=O)O)C[C@@H]3OC1CC(NC(=O)C(F)(F)F)C(O)C(C)O1 (some centres undefined)
Ans: > 445%

* * *

- Test system: Mus musculus
- assay.notes: In vivo percent increase in life span relative to untreated controls in B6D2F1/J male mice at dose 60 mg/kg
- Type: functional
For each entry below, report its ILS at 60 mg/kg value.
Answers are plain numbers, in %.

COc1cccc2c1C(=O)c1c(O)c3c(c(O)c1C2=O)C[C@@](O)(C(=O)COC(=O)CC(=O)O)C[C@@H]3OC1CC(NC(=O)C(F)(F)F)C(O)C(C)O1 (stereo not given in full)    136

Then there is this molecule:
Q: Dear colleague, I am looking for the recorded ILS at 60 mg/kg of the following molecule: COc1cccc2c1C(=O)c1c(O)c3c(c(O)c1C2=O)C[C@@](O)(C(=O)COC(=O)CCC(=O)O)C[C@@H]3OC1CC(NC(=O)C(F)(F)F)C(O)C(C)O1 (stereo not given in full)
Ans: 127

* * *

For each of the compounds below, state its ILS at 70 mg/kg.
- Test system: Mus musculus
- assay.notes: In vivo percent increase in life span relative to untreated controls in B6D2F1/J male mice at dose 70 mg/kg
- Assay type: functional

COc1cccc2c1C(=O)c1c(O)c3c(c(O)c1C2=O)C[C@@](O)(C(=O)COC(=O)CCCC(=O)O)C[C@@H]3OC1CC(NC(=O)C(F)(F)F)C(O)C(C)O1 (stereo partly drawn)    > 445%
COc1cccc2c1C(=O)c1c(O)c3c(c(O)c1C2=O)C[C@@](O)(C(=O)COC(=O)CCC(=O)O)C[C@@H]3OC1CC(NC(=O)C(F)(F)F)C(O)C(C)O1 (stereo partly drawn)    190%

Q: Find ILS at 70 mg/kg (Mus musculus) for the entry COc1cccc2c1C(=O)c1c(O)c3c(c(O)c1C2=O)C[C@@](O)(C(=O)COC(=O)CCCCCCCCC(=O)O)C[C@@H]3OC1CC(NC(=O)C(F)(F)F)C(O)C(C)O1 (stereo partly drawn)
Ans: > 445%

Hey, just so you know, these numbers are from ChEMBL document CHEMBL1123031.
